This section presents compounds with their documented remaining activity at 10 µM values.
target: human 17β-HSD10 enzyme (Homo sapiens, UniProt Q99714); construct: made in house; host or cells: Escherichia coli BL21 (DE3); assay: 17β-HSD10 enzyme inhibition screening and IC50 determination (AAC reductase assay, NADH absorbance at 340 nm); assay type: biochemical; settings: 10 μM compound; 320 μM AAC, 320 μM NADH, 37 °C; read-out: Percentage of Residual Activity at 10 μM
Sequence (Q99714 whole entry): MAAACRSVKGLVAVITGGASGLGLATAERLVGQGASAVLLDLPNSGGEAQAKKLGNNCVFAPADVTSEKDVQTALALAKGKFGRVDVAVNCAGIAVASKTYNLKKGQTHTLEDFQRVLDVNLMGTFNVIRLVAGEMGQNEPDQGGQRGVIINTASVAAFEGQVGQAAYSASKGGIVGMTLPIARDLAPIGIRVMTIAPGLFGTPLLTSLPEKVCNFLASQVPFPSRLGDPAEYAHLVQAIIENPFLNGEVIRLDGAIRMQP
Measured endpoint: remaining activity at 10 µM (%)

INSERT INTO assay_data (compound, measured_endpoint, observed_result) VALUES
  ('COc1ccc2nc(NC(=O)Nc3ccc(F)cc3O)sc2c1 [Compound 4l]', 'remaining activity at 10 µM', 92.1),
  ('COc1c(Cl)cc(NC(=O)Nc2nc3ccc(Cl)cc3s2)cc1Cl [Compound 4ac]', 'remaining activity at 10 µM', 91.2),
  ('COc1ccc(NC(=O)Nc2nc3ccc(Cl)cc3s2)cc1O [Compound 4ai]', 'remaining activity at 10 µM', 80.5),
  ('O=C(Nc1cc(F)c(O)c(F)c1)Nc1nc2ccc(F)cc2s1 [Compound 4g]', 'remaining activity at 10 µM', 62.5),
  ('O=C(Nc1cc(F)c(O)c(F)c1)Nc1nc2ccc(Cl)cc2s1 [Compound 4h]', 'remaining activity at 10 µM', 58.3),
  ('COc1ccc2nc(NC(=O)Nc3ccc(O)cc3F)sc2c1 [Compound 4c]', 'remaining activity at 10 µM', 74.9);

---

Below, each entry is listed with its recorded remaining activity at 10 µM.
biological target: human 17β-HSD10 enzyme (Homo sapiens, UniProt Q99714); construct: made in house; host or cells: Escherichia coli BL21 (DE3); assay: 17β-HSD10 enzyme inhibition screening and IC50 determination (AAC reductase assay, NADH absorbance at 340 nm); assay type: biochemical; details: 10 μM compound; 320 μM AAC, 320 μM NADH, 37 °C; read-out: Percentage of Residual Activity at 10 μM
Measured endpoint: remaining activity at 10 µM (%)

INSERT INTO results (structure_smiles, measured_endpoint, unit_string, observed_result) VALUES
  ('O=C(Nc1nc2ccc(Cl)cc2s1)Nc1ccc(F)c(F)c1O', 'remaining activity at 10 µM', '%', 68.7),
  ('COc1c(F)cccc1NC(=O)Nc1nc2ccc(Cl)cc2s1', 'remaining activity at 10 µM', '%', 69.3),
  ('COc1ccc2nc(NC(=O)Nc3ccc(F)c(F)c3O)sc2c1', 'remaining activity at 10 µM', '%', 69.8);
